test: soluble on expression in E. coli; label from the status in PepcDB or PDB records
Quantity Measured: soluble on expression in E. coli

Before answering, review these 6 worked examples.
# Entry Sequence, Result
rows = [
    ("GPLGSKAPTVFSQNEASLLNQLKNIANREDYVVTWWDYGYPVRYYSDVKTLVDGGKHLGKDNFFPSFALSKDEQAAANMARLSVEYTEKSFYAPQNDILKSDILQAMMKDYNQSNVDLFLASLSKPDFKIDTPKTRDIYLYMPARMSLIFSTVASFSFINLDTGVLDKPFTFSTAYPLDVKNGEIYLSNGVVLSDDFRSFKIGDNVVSVNSIVEINSIKQGEYKITPIDDKAQFYIFYLKDSAIPYAQFILMDKTMFNSAYVQMFFLGNYDKNLFDLVINSRDAKVFKLKI", "soluble"),
    ("MGSDKIHHHHHHMKKKIVVLLPMKANSTRVKGKNFRDFCGKPLFRWILDSLLAVEDIDQIVINTDARDILAENGLVGTDRILIRDRKKEICGDEVSMNRVLADDVENVEADIYLMTHTTNPLLSSNTIKQAINQYNEELASASADSLFTVNKIQTRFYTAKCEPINHDPDNLIPTQDLEPWFEENSNLYLFNRESFAKTNARIGAKPSMMVSPAMECSDIDTPDDWDQAVVMTHYMLEKGFVKL", "not soluble"),
    ("MAGEAGQPSEPLNLLAGMAAAPWDYDFFQALRRIECESPQLPRLGHSVRLADDPLRLGQKPDCTFAPSTLASVSQAGTAAVPRLDQFFFGLTGPNGPLPLHLTEYARERQRNVNDATFKRFMDVFHHRLLTLFYRAWAEARPEISHDRIDDDYWSARLAALSGRGMPSLRGREPLADTARYYYTGHLAAQTRYPDGLRVILAEYFEVPVAVEEYVGQWLELPERSRLGVDSTSLGMDVCLGTHVWDRQHKFRLRLGPLDLDQYQRFLPDGDHFVELAAWVAEYLGEELDWDVNLVLQRHEVPPLGLQGGGRLGFNTWLGDPGQDARDLLLARQYATARPHEHKEKEHE", "not soluble"),
    ("MEIIFYHPTFNAAWWVNALEKALPHARVREWKVGDNNPADYALVWQPPVEMLAGRRLKAVFVLGAGVDAILSKLNAHPEMLDASIPLFRLEDTGMGLQMQEYAVSQVLHWFRRFDDYQALKNQALWKPLPEYTREEFSVGIMGAGVLGAKVAESLQAWGFPLRCWSRSRKSWPGVESYVGREELRAFLNQTRVLINLLPNTAQTVGIINSELLDQLPDGAYVLNLARGVHVQEADLLAALDSGKLKGAMLDVFSQEPLPQESPLWRHPRVAMTPHIAAVTRPAEAIDYISRTITQLEKGEPVTGQVDRARGY", "not soluble"),
    ("MKQFKRGIERDGTGFVVLMAEEAEDMWHIYNLIRIGDIIKASTIRKVVSETSTGTTSSQRVHTMLTVSVESIDFDPGAQELHLKGRNIEENDIVKLGAYHTIDLEPNRKFTLQKTEWDSIDLERLNLALDPAQAADVAAVVLHEGLANVCLITPAMTLTRAKIDMTIPRKRKGFTSQHEKGLEKFYEAVSTAFMRHVNLQVVKCVIVASRGFVKDAFMQHLIAHADANGKKFTTEQRAKFMLTHSSSGFKHALKEVLETPQVALRLADTKAQGEVKALNQFLELMSTEPDRAFYGFNHVNRANQELAIETLLVADSLFRAQDIETRRKYVRLVESVREQNGKVHIFSSMHVSGEQLAQLTGCAAILRFPMPDLDDEPMDEN", "not soluble"),
    ("GAQVSSQKVGAHENSNRAYGGSTINYTTINYYKDSASNAASKQDYSQDPSKFTEPLKDVLIKTAPALN", "soluble"),
]

Ask: Reported soluble on expression in E. coli, sequence MGSDKIHHHHHHMNGFCARLRAITHNERLKMKIAVLLSGGVDSSYSAYSLKEQGHELVGIYLKLHASEKKHDLYIKNAQKACEFLGIPLEVLDFQKDFKSAVYDEFINAYEEGQTPNPCALCNPLMKFGLALDHALKLGCEKIATGHYARVKEIDKISYIQEALDKTKDQSYFLYALEHEVIAKLVFPLGDLLKKDIKPLALNAMPFLGTLETYKESQEICFVEKSYIDTLKKHVEVEKEGVVKNLQGEVIGTHKGYMQYTIGKRKGFSIKGALEPHFVVGIDAKKNELVVGKKEDLATHSLKAKNKSLMKDFKDGEYFIKARYRSVPAKAHVSLKDEVIEVGFKEPFYGVAKGQALVVYKDDILLGGGVIV : ____
Reply: not soluble
